System: SK-MEL-28 melanoma
Test: NCI-60 one-dose screen, 48 h (100 = growth as untreated, 0 = no growth, -100 = all killed)
Conditions: 10 µM unless noted
About 83,000 compounds went through this panel and 20% of them were active in at least one assay; those are over-represented in the sample as a whole.
One threshold, 90%, splits the recorded growth values: lower ones are criterion met, equal or higher ones are criterion not met.

Query string: Answer whether the compound "O=S(=O)(NCCNc1nccc(-c2c(-c3cccc(F)c3)nc3sccn23)n1)c1ccc(Cl)cc1" has growth strictly less than 90%
Result string: criterion met

----------
Test system: MCF7 breast
Test: NCI-60 one-dose screen, 48 h
Conditions: 10 µM unless noted
About 83,000 compounds went through this panel and 20% of them were active in at least one assay; those are over-represented in the sample as a whole. The source made the active and inactive calls. Rule for the calls: active = growth percent below 10; inactive = the rest.
Allowed answers: t = active, f = inactive

The following compounds have reported results that may help.
INSERT INTO assay_data (compound_string, target, assigned_category) VALUES
  ('C#CCNC(=O)[C@]1(C)CC[C@]2(C)CC[C@@H]3C(=CC[C@H]4[C@@]3(C)CC[C@H]3C(C)(C)C(=O)CC[C@]43C)[C@@H]2C1', 'MCF7 breast', 'f'),
  ('CN(CCN(C)c1ccc(C(=N)N)cc1)c1ccc(C(=N)N)cc1', 'MCF7 breast', 'f'),
  ('Cc1cc2c(C(=O)NCC#N)cccc2n1-c1nc2c(c(NCc3ccccc3)n1)CCCC2', 'MCF7 breast', 't');

Query string: How was "COc1cc2cc(Oc3cccc(NC(=O)Nc4cc(C(F)(F)F)cc(C(F)(F)F)c4)c3)c(C)nc2cc1OC" classified in this test?
Result string: t

Query string: For "N/C(=N\C(N)=N\c1nc2ccccc2s1)c1cccc(Cl)c1" , which call appears in the assay record?
Result string: f

----------
Test system: HT29 colon
Test: NCI-60 one-dose screen, 48 h
Details: 10 µM unless noted
About 83,000 compounds went through this panel and 20% of them were active in at least one assay; those are over-represented in the sample as a whole. Active and inactive are the calls of the source. The calls were made as follows: active = growth percent below 10; inactive = the rest.
Give your call using only these classes: 1 (yes) (active), 0 (no) (inactive)

Look over these answered cases.
INSERT INTO assay_data (compound_string, target, assigned_category) VALUES
  ('COc1ccc(C(=O)c2cc(C)c(OC)c(C)c2)c(OC)c1NC(C)=O', 'HT29 colon', '1 (yes)'),
  ('CCCCCCNC(=O)Oc1ccc(/C(=C(\C)c2ccccc2)c2ccc(OCCN3CCCCC3)cc2)cc1', 'HT29 colon', '1 (yes)'),
  ('COc1ccc(C(=O)c2cc(C)c(OC)c(C)c2)c(OC)c1OC(=O)C(Cl)Cl', 'HT29 colon', '0 (no)'),
  ('O=C(Nc1ccc(Cl)cc1)c1cc(NCc2cc(O)ccc2O)ccc1O', 'HT29 colon', '0 (no)');

Here is another compound to look at.
Query string: Which outcome did this test record for the compound "CC(=O)c1ccc(NS(=O)(=O)c2cccc(C(=O)Nc3ccc(Br)cc3)c2)cc1" ?
Result string: 0 (no)

----------
Tested on: COLO 205 colon
Assay: NCI-60 one-dose screen, 48 h
Details: 10 µM unless noted
About 83,000 compounds went through this panel and 20% of them were active in at least one assay; those are over-represented in the sample as a whole. Calls of active or inactive are those of the source. How the source made its calls: active means growth percent below 10; inactive means the rest.
Respond using exactly one of the listed classes: Y (active), N (inactive)

INSERT INTO measurements (molecule, assigned_category) VALUES
  ('COC(=O)c1ccc2c(c1)[n+](=O)c(C(C)=O)c(C(F)(F)F)n2[O-]', 'Y'),
  ('Cc1ccc(C(=O)/C(=C\c2ccc([N+](=O)[O-])cc2)S(=O)Cc2ccc(F)cc2)cc1 (stereo not drawn)', 'Y'),
  ('Cc1ccc(C(=O)/C(=C/c2ccc([N+](=O)[O-])cc2)SCc2ccc(Cl)cc2)cc1', 'N'),
  ('CC(=O)O[C@@H]1C2CCC3C(CC[C@@]4(C)C3CC[C@@H]4C(C)N(C)C)[C@@]2(C)CC[C@@H]1NC(=O)C=C(C)C (stereo partly drawn)', 'Y'),
  ('COc1cc(/C=C\c2cc(/C=C\c3ccc(O)c(OC)c3)n(C(=O)COc3ccccc3)n2)ccc1O', 'N'),
  ('NS(=O)(=O)c1ccc(CCN2C(=O)C3C(C2=O)C2(Cl)C(Cl)=C(Cl)C3(Cl)C2(Cl)Cl)cc1 (stereo not drawn)', 'N'),
  ('Nc1n[nH]c2cccc(C#Cc3cccc(C(=O)Nc4cc(CN5CCOCC5)cc(C(F)(F)F)c4)c3)c12', 'N');

We now examine a further molecule.
Query string: Outcome logged for "COc1ccc(-c2cnc3c(-c4cccc5ncccc45)cnn3c2)cc1" in this assay:
Result string: N

----------
Test system: HT29 colon
Assay: NCI-60 one-dose screen, 48 h (100 = growth as untreated, 0 = no growth, -100 = all killed)
Settings: 10 µM unless noted
The panel holds about 83,000 compounds, 20% with a hit somewhere; the sample as a whole holds those more often.
If the reported growth equals or exceeds 80%, assign 1 (yes). If not, assign 0 (no).

These recorded examples may help you get a feel for the data.
INSERT INTO assay_data (compound, assigned_category) VALUES
  ('O=C(Cn1c[n+](CC(=O)c2ccc(-c3ccccc3)cc2)c2ccccc21)Nc1cccc2cccnc12', '0 (no)'),
  ('C=C1C(=O)O[C@H]2[C@H]1CC/C(CNC(=O)C(C)c1ccc(CC(C)C)cc1)=C\CC[C@@]1(C)O[C@@H]21 (stereo not given in full)', '0 (no)'),
  ('O=C(Nc1cccc(C2=NCCN2)c1)c1ccc(-c2ccc(C(=O)Nc3cccc(C4=NCCN4)c3)cc2)cc1', '1 (yes)');

// next entry
Query string: Dear colleague, could you confirm whether "CC(C)N1C(=O)/C(=C2\SC(=S)N(C(C)C)C2=O)SC1=S" has growth at or above 80%?
Result string: 1 (yes)

----------
System: OVCAR-5 ovarian
Test: NCI-60 one-dose screen, 48 h (100 = growth as untreated, 0 = no growth, -100 = all killed)
Conditions: 10 µM unless noted
This is part of a sample that, as a whole, favours compounds with a hit. Of some 83,000 tested, about 20% had one in any assay. Activity calls are given as the source filed them. How the source made its calls: active means growth percent below 10; inactive means the rest.
observation-type: growth

INSERT INTO measurements (compound, measured_value) VALUES
  ('C=C1C(=O)O[C@H]2[C@H]1CC/C(COC(=O)NCc1c[nH]c3ccc(F)cc13)=C\CC[C@@]1(C)O[C@@H]21', '-30.6% (active)'),
  ('COc1cc(/C=N/NC(=O)c2cnn3c2NC(c2ccccc2)C3)ccc1OCc1ccccc1 (stereo not given)', '33.2% (inactive)'),
  ('COc1cc2c(=O)n(CCN(C)C)c3c4cc5c(cc4ccc3c2cc1OC)OCO5', '-17.5% (active)'),
  ('COc1ccc(/C=C/c2nc(Nc3cccc(NC(C)=O)c3)c3ccccc3n2)cc1', '86.8% (inactive)'),
  ('O=C(CCN1CCCC1)Nc1ccc2c(NCCCCc3ccccc3)c3ccccc3nc2c1', '7.16% (active)'),
  ('O=c1c2c(c(=O)n1O)c1c3ccc[nH]c3nc1c1nc3[nH]cccc3c12', '103% (inactive)'),
  ('CCN1C(=O)/C(=C/C(=O)OC)S/C1=N\NC(=O)c1cc2ccc1/C=C\c1ccc(cc1)/C=C\2', '100% (inactive)'),
  ('O=C(Nc1ccccc1)Nc1ccc2cc3ccc(NC(=O)Nc4ccccc4)cc3nc2c1', '92.4% (inactive)');

Query string: So what's the measured growth for this one? "COc1ccc(CC(C)=C(c2ccc(OCCN3CCCCCC3)cc2)c2ccc(OCCN3CCCCCC3)cc2)cc1"
Result string: -95.9% (active)

Query string: Any idea what growth was measured for "Cc1cc2nc3c4ccc(Br)cc4n(CCN(C)C)c3nc2cc1C" ?
Result string: 25.1% (inactive)

Query string: Item under review: "CCOC(=O)C1=C(C)NC(SCc2cc(=O)oc3ccc(F)cc23)=N[C@@H]1c1cccc2ccccc12" . Reported growth?
Result string: 119% (inactive)

Query string: What value of growth has been reported for the following compound? "COc1cc(/C(C)=C(\c2ccc(Cl)cc2)c2ccc(OCCN3CCCC3)cc2)ccc1F"
Result string: 74.8% (inactive)

Query string: Looking for the measured growth of COc1ccccc1NC(=O)C1CC(c2ccc(F)cc2)=NO1 (stereo not given) , can you help?
Result string: 108% (inactive)

Query string: Looking for the measured growth of "Cn1cc(-c2nc(-c3c[nH]c4c(Cl)nccc34)cs2)c2cc(F)ccc21" , can you help?
Result string: 119% (inactive)

Query string: Can you look up the measured growth of "COc1cc(/C(C)=C(\c2ccc(Cl)cc2)c2ccc(OCCN(C)C)cc2)ccc1F" for me?
Result string: 75.3% (inactive)

All values here come from PubChem BioAssay (NCI).
